# STUDY TARGET: UniProt:P00915
# MEASUREMENT NOTES: Inhibition of human carbonic anhydrase 1-catalyzed CO2 hydration preincubated for 10 mins by stopped-flow assay
READOUT NAME: Ki (nM)

# count of solved cases: 5
{"SAMPLE SMILES": "CC(C)(C)c1ccc(/C=N/Cc2ccc(S(N)(=O)=O)cc2)cc1.Cl", "STUDY TARGET": "UniProt:P00915", "READOUT NAME": "Ki", "OBSERVED MEASUREMENT": 72}
{"SAMPLE SMILES": "COC(=O)c1ccc(/N=C/c2ccccc2)cc1", "STUDY TARGET": "UniProt:P00915", "READOUT NAME": "Ki", "OBSERVED MEASUREMENT": 8600}
{"SAMPLE SMILES": "CC(C)(C)c1ccc(CNc2ccc(S(N)(=O)=O)cc2)cc1", "STUDY TARGET": "UniProt:P00915", "READOUT NAME": "Ki", "OBSERVED MEASUREMENT": 18.7}
{"SAMPLE SMILES": "COC(=O)c1ccc(NCc2ccc(O)cc2)cc1", "STUDY TARGET": "UniProt:P00915", "READOUT NAME": "Ki", "OBSERVED MEASUREMENT": 209}
{"SAMPLE SMILES": "O=C(O)c1ccc(/N=C/c2ccccc2)cc1", "STUDY TARGET": "UniProt:P00915", "READOUT NAME": "Ki", "OBSERVED MEASUREMENT": 1230}

P: COC(=O)c1ccc(NCc2ccccc2)cc1
Q: Cl.NS(=O)(=O)c1ccc(CNCc2ccc(O)cc2)cc1
Could you kindly indicate whether P or Q has the higher Ki value? When you have decided, please share the label of that item.
P

---

Here we list compounds with their recorded Ki when tested on UniProt P00918.
READOUT NAME: Ki (nM)

P: NS(=O)(=O)c1ccc(NCc2ccc(O)cc2)cc1
Q: NS(=O)(=O)c1ccc(CC/N=C/c2ccc(O)cc2)cc1
Could you kindly indicate whether P or Q has the higher Ki value? When you have decided, please share the label of that item.
P
(P: 702 nM, Q: 43 nM)

---

# STUDY TARGET: Carbonic anhydrase 1 (Homo sapiens)
# MEASUREMENT NOTES: Inhibition of human carbonic anhydrase 1-catalyzed CO2 hydration preincubated for 10 mins by stopped-flow assay
READOUT NAME: Ki (µM)

# count of solved cases: 5
{"SAMPLE SMILES": "COc1ccc(O)c(/C=N/CCc2ccc(S(N)(=O)=O)cc2)c1", "READOUT NAME": "Ki", "OBSERVED MEASUREMENT": 0.07}
{"SAMPLE SMILES": "COc1ccc(O)c(CNCCc2ccc(S(N)(=O)=O)cc2)c1", "READOUT NAME": "Ki", "OBSERVED MEASUREMENT": 0.056}
{"SAMPLE SMILES": "COc1ccc(O)c(/C=N/Cc2ccc(S(N)(=O)=O)cc2)c1.Cl", "READOUT NAME": "Ki", "OBSERVED MEASUREMENT": 0.092}
{"SAMPLE SMILES": "NS(=O)(=O)c1ccc(NCc2ccc(O)cc2)cc1", "READOUT NAME": "Ki", "OBSERVED MEASUREMENT": 0.029}
{"SAMPLE SMILES": "CC(C)(C)c1ccc(CNc2ccc(C(=O)O)cc2)cc1", "READOUT NAME": "Ki", "OBSERVED MEASUREMENT": 0.266}

A: COC(=O)c1ccc(NCc2cc(OC)ccc2O)cc1
B: COc1ccc(O)c(/C=N/c2ccc(S(N)(=O)=O)cc2)c1
Could you kindly indicate whether A or B has the higher Ki value? When you have decided, please share the label of that item.
A
(A: 0.228 µM, B: 0.052 µM)

---

# STUDY TARGET: Carbonic anhydrase 1 (Homo sapiens, UniProt P00915)
# Sequence (P00915 whole entry): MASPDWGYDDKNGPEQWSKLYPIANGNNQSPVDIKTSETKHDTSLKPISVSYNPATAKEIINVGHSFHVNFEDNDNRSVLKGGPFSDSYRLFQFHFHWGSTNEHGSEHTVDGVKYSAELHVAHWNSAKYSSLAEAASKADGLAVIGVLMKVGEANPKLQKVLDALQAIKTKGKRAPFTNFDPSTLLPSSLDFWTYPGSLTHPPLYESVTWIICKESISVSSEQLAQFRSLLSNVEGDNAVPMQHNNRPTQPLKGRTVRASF
pKi: −log10 of the molar value.
READOUT NAME: pKi

{"SAMPLE SMILES": "CC(C)(C)c1ccc(/C=N/c2ccc(C(=O)O)cc2)cc1", "OBSERVED MEASUREMENT": 5.08}

P: COC(=O)c1ccc(/N=C/c2cc(OC)ccc2O)cc1
Q: COc1ccc(O)c(CNc2ccc(S(N)(=O)=O)cc2)c1
R: O=C(O)c1ccc(NCc2ccc(O)cc2)cc1
S: COc1ccc(O)c(CNCc2ccc(S(N)(=O)=O)cc2)c1.Cl
I would appreciate it if you could sort these 4 compounds by pKi, starting from the smallest number. Note for the reader: the ranking is given by listing the labels in the order requested.
P, R, S, Q
